Answer each item with its documented IC90.
Tested on: Huh7 cells expressing a subgenomic RNA replicon of Con1 (genotype 1b) sequence origin
method: microbe, parasite or virus in culture
protocol_conditions: Hepatitis C virus, Huh-7
Please give a number only; it is taken to be in µM.

Query string: Hello, please tell me recorded IC90 for this one: CSc1ccc(Oc2ccc(S(N)(=O)=O)cc2CNC[C@H](C)O)cc1C
Result string: 10.4

Query string: Let me know recorded IC90 for CN(C1CC1)[C@H]1CC[C@@H](c2ccc(Cl)c(Cl)c2)c2ccccc21 , thanks.
Result string: 34.2

Query string: Recall and state the measured IC90 for CSc1ccc(Oc2ccc(S(N)(=O)=O)cc2CN2CC[C@H](O)C2)cc1C .
Result string: 6.78

Query string: Provide measured IC90 value, entry: CSc1ccc(Oc2ccc(S(N)(=O)=O)cc2CN2CCN(C(C)C)CC2)cc1C
Result string: 8.21

====

metric_name: TI (CC50/IC50)
Write the number on its own, no unit after it.

Query string: Retrieve TI (CC50/IC50) on Huh7 cells expressing a subgenomic RNA replicon of Con1 (genotype 1b) sequence origin; query CN[C@H]1CC[C@@H](c2ccc(Cl)c(Cl)c2)c2ccc(CO)cc21 [Sertraline A-Ring Ethanol]
Result string: 2.472

Query string: # return TI (CC50/IC50) for NC1CCC(c2ccc(Cl)c(Cl)c2)c2ccccc21 (racemic) , test system: Huh7 cells expressing a subgenomic RNA replicon of Con1 (genotype 1b) sequence origin
Result string: 1.252

Query string: Give the observed TI (CC50/IC50) of Cl.N[C@H]1CC[C@@H](c2ccc(Cl)c(Cl)c2)c2ccccc21 [(1S,4S)-Desmethyl Sertraline, Hydrochloride] for Huh7 cells expressing a subgenomic RNA replicon of Con1 (genotype 1b) sequence origin.
Result string: 1.247

====

method: in vitro
protocol_conditions: human, CC50 (uM) [SG]
metric_name: CC50

Query string: Specify measured CC50 for CSc1ccc(Oc2ccc(S(N)(=O)=O)cc2CNC[C@@H](C)O)cc1C .
Result string: > 50 µM

Query string: Input CNCc1cc(Br)ccc1Oc1ccc(SC)c(C)c1 , output reported CC50.
Result string: 13.5 µM

Query string: Return CC50 for the following compound: CNc1ccc(Oc2ccc(SC)c(C)c2)c(CN(C)C)c1
Result string: 46.9 µM

Query string: Tell me CC50 reported for CN[C@H]1CC[C@@H](c2ccc(Cl)c(Cl)c2)c2ccc(C(=O)NCC(=O)OC)cc21
Result string: 22.9 µM

Query string: Determine from records and report CC50 for CSc1ccc(Oc2ccc(S(N)(=O)=O)cc2CN(C)CCN(C)C)cc1C
Result string: 43.3 µM

====

For each of the molecules below, state its IC90.
System: Huh7 cells expressing a subgenomic RNA replicon of Con1 (genotype 1b) sequence origin
method: microbe, parasite or virus in culture
protocol_conditions: Hepatitis C virus, Huh-7
Reply with the number and its unit after it.

Query string: Fill in: IC90 on Huh7 cells expressing a subgenomic RNA replicon of Con1 (genotype 1b) sequence origin, entry CNCc1cc([N+](=O)[O-])ccc1Oc1ccc(SC)c(C)c1 [Compound 50]
Result string: 11.4 µM

Query string: Report value: IC90, system: Huh7 cells expressing a subgenomic RNA replicon of Con1 (genotype 1b) sequence origin, molecule: CSc1ccc(Oc2ccc(S(N)(=O)=O)cc2CN(C)C[C@H](C)O)cc1C [Compound 71]
Result string: 13.4 µM

Query string: Give the observed IC90 of CSc1ccc(N(C)c2ccc(Br)cc2CN(C)C)cc1C [Compound 98] for Huh7 cells expressing a subgenomic RNA replicon of Con1 (genotype 1b) sequence origin.
Result string: 26.8 µM

Query string: State, for Huh7 cells expressing a subgenomic RNA replicon of Con1 (genotype 1b) sequence origin, measured IC90 of the molecule listed here: CSc1ccc(Oc2ccc(S(N)(=O)=O)cc2CN2CCNCC2)cc1C [Compound 111]
Result string: 22.6 µM

Query string: Please look at COC1CC[C@@H](c2ccc(Cl)c(Cl)c2)c2ccccc21 (single isomer, unassigned) [Methoxy 4S-Sertraline-P1] and tell me its recorded IC90 on Huh7 cells expressing a subgenomic RNA replicon of Con1 (genotype 1b) sequence origin.
Result string: 46.1 µM

Query string: State IC90 (Huh7 cells expressing a subgenomic RNA replicon of Con1 (genotype 1b) sequence origin) of CN[C@H]1CC[C@@H](c2ccc(Cl)c(Cl)c2)c2ccc(C[S+](C)[O-])cc21 (some centres unmarked) .
Result string: 5.13 µM

Query string: Recall the reported IC90 of CN(C)[C@H]1CC[C@@H](c2ccc(Cl)c(Cl)c2)c2ccc(C(=O)NCC3CC3)cc21 when tested on Huh7 cells expressing a subgenomic RNA replicon of Con1 (genotype 1b) sequence origin.
Result string: 12.2 µM

Query string: # lookup: Huh7 cells expressing a subgenomic RNA replicon of Con1 (genotype 1b) sequence origin IC90, key = CN[C@H]1CC[C@@H](c2ccc(Cl)c(Cl)c2)c2ccc(NC(=O)c3ccccc3)cc21 [Sertraline A-Ring Reverse Benzamide]
Result string: 3.88 µM
